Molecular target: UniProt P08575
Sequence (P08575 whole entry): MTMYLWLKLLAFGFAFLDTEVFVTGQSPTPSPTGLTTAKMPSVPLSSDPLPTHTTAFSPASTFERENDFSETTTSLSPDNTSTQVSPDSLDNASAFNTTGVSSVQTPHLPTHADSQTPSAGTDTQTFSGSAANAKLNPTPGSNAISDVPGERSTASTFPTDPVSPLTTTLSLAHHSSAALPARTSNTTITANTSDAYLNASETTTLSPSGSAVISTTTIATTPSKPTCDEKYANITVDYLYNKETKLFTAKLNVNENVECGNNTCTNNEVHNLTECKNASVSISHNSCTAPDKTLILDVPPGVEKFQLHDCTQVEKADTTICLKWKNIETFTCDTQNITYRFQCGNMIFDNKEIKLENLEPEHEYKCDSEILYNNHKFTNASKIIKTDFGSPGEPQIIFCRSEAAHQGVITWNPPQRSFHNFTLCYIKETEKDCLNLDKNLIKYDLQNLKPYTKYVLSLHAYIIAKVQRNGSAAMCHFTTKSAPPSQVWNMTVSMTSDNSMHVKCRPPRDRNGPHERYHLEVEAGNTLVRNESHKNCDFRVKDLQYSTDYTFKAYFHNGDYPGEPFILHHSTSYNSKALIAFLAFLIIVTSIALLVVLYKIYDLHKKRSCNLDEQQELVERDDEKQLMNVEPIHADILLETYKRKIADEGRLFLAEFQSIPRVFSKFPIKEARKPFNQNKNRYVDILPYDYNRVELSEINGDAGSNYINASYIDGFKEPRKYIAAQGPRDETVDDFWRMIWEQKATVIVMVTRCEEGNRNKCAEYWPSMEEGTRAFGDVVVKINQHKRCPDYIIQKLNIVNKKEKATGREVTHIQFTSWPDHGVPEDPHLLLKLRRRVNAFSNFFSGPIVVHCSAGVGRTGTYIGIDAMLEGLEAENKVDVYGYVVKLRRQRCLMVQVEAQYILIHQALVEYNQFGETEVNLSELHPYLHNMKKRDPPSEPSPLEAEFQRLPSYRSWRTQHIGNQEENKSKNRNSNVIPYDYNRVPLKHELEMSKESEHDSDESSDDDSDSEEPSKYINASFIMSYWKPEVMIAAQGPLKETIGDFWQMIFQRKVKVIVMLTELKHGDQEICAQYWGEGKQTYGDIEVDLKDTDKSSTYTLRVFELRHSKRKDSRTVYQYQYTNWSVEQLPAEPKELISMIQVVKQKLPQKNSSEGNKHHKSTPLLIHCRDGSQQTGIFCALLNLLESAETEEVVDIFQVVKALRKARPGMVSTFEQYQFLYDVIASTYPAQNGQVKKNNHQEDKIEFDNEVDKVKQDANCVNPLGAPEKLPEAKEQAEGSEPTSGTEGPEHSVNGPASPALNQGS
Design: species or system Escherichia coli
outcome-measure: IC50

Here is how some compounds turned out for IC50.
C=C1/C(=C\C=C2/CCC[C@]3(C)[C@@H]([C@H](C)CCCC(C)C)CC[C@@H]23)C[C@@H](O)C[C@@H]1O [ALFACALCIDOL] | Not Active
CC(=O)O[C@]1(C(C)=O)CC[C@H]2[C@@H]3C=C(Cl)C4=CC(=O)[C@@H]5C[C@@H]5[C@]4(C)[C@H]3CC[C@@]21C [CYPROTERONE ACETATE] | Not Active
C#C[C@]1(O)CC[C@H]2[C@@H]3CCC4=Cc5oncc5C[C@]4(C)[C@H]3CC[C@@]21C [DANAZOL] | Not Active
COc1cc(N)nc2[nH]c(-c3ccc(F)cc3)c(-c3ccncc3)c12 | Not Active
OCCO [ETHYLENE GLYCOL] | Not Active

Prompt line: Which measured IC50 value corresponds to NC[C@@H]1O[C@H](O[C@H]2[C@@H](O)[C@H](O[C@@H]3[C@@H](O)[C@H](N)C[C@H](N)[C@H]3O[C@H]3O[C@H](CN)[C@@H](O)[C@H](O)[C@H]3N)O[C@@H]2CO)[C@H](N)[C@@H](O)[C@@H]1O [FRAMYCETIN] ?
Response line: Not Active

Prompt line: Which measured IC50 value corresponds to C[C@@H]1C[C@H]2[C@@H]3CCC4=CC(=O)C=C[C@]4(C)C3=CC[C@]2(C)[C@H]1C(=O)CN1CCN(c2cc(N3CCCC3)nc(N3CCCC3)n2)CC1 [TIRILAZAD] ?
Response line: Not Active

Prompt line: Which measured IC50 value corresponds to C[C@]12CC[C@H]3[C@@H](CCC4=CC(=O)CC[C@@]43C)[C@@H]1CC[C@@H]2O [TESTOSTERONE] ?
Response line: Not Active

Prompt line: Which measured IC50 value corresponds to O=c1n(CCCN2CCN(c3cccc(Cl)c3)CC2)nc2ccccn12 [TRAZODONE] ?
Response line: Not Active

Prompt line: Which measured IC50 value corresponds to CN1C2CCCC1CC(NC(=O)c1nn(C)c3ccccc13)C2 (configuration not stated) [GRANISETRON] ?
Response line: Not Active

Prompt line: Which measured IC50 value corresponds to CC(C)(C)c1ccc(S(=O)(=O)/C=C/C#N)cc1 [BAY-11-7085] ?
Response line: Not Active

Prompt line: Which measured IC50 value corresponds to C#C[C@]1(O)CC[C@H]2[C@@H]3CCc4cc(O)ccc4[C@H]3CC[C@@]21C [ETHINYL ESTRADIOL] ?
Response line: Not Active
